# TARGET_SYSTEM: TBK1 (Homo sapiens)
# Construct: TBK1 and IKKε were expressed and purified as full length recombinant proteins
# EXPERIMENT_SUMMARY: TR-FRET enzymatic activity assay, TBK1; further: full length recombinant TBK1 at 2.5 nM
Strictly below 60 nM in IC50: true. Otherwise: false.

Recorded results for 5 compounds are shown here.
* Cc1cc([C@@H]2C[C@H]2C(=O)Nc2cc(-c3ccc(OC4CCOCC4)c(C#N)c3)ccn2)on1 (relative stereo) [Example 47] | true
* N#Cc1cc(-c2ccnc(NC(=O)[C@@H]3C[C@@H]3c3ccccc3)c2)ccc1O[C@H]1CCN(C(=O)CO)C[C@H]1F (stereo in doubt) [Example 71] | true
* N#Cc1cc(-c2ccnc(NC(=O)[C@H]3C[C@@H]3c3cscn3)c2)ccc1OC1CCOCC1 (relative stereo) [Example 123] | false
* N#Cc1cc(-c2ccnc(NC(=O)[C@@H]3CC3C(=O)O)c2)ccc1O[C@H]1CCN(C(=O)CO)C[C@H]1F (stereo in doubt) [Example 84] | false
* N#Cc1cc(-c2ccnc(NC(=O)[C@H]3C[C@H]3F)c2)ccc1O[C@H]1CCN(C(=O)CO)C[C@H]1F [Example 59] | true

Attention now turns to another entry.
hey, is IC50 for CC(O)[C@@H]1C[C@H]1C(=O)Nc1cc(-c2ccc(OC3CCOCC3)c(C#N)c2)ccn1 (stereo partly shown) [Example 39] lower than 60 nM or not?
false

====

Recorded measurements of pIC50, one per entry
# TARGET_SYSTEM: TBK1 (Homo sapiens, UniProt Q9UHD2)
# Construct: TBK1 and IKKε were expressed and purified as full length recombinant proteins
# Sequence (Q9UHD2 whole entry): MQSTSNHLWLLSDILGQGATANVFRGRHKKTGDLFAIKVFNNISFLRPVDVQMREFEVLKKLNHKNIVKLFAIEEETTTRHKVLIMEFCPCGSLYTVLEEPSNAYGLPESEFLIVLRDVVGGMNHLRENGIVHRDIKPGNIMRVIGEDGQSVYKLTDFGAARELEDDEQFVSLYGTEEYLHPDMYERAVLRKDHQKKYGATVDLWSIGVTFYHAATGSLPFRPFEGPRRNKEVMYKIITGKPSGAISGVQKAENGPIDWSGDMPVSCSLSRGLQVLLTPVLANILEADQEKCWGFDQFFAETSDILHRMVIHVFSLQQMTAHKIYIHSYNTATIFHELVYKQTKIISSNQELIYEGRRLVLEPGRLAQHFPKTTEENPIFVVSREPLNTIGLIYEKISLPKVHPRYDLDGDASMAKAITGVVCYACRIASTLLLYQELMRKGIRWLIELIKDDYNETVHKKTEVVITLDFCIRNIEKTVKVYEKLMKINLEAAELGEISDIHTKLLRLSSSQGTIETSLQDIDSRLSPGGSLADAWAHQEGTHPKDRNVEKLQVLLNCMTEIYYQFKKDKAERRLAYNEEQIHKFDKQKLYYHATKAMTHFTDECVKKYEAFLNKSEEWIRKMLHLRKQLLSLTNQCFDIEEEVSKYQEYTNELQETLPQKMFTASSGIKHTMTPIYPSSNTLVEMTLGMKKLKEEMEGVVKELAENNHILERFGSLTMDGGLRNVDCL
# EXPERIMENT_SUMMARY: TR-FRET enzymatic activity assay, TBK1; further: full length recombinant TBK1 at 2.5 nM
# pIC50: negative log10 of molar concentration; output just the value

Some solved entries appear below for comparison.
- N#Cc1cc(-c2ccnc(NC(=O)C3CC3)c2)ccc1OC1CCOCC1: 7.55
- N#Cc1cc(-c2cc(NC(=O)[C@@H]3C[C@H]3c3cccnc3)ncn2)ccc1O[C@H]1CCN(C(=O)CO)CC1(F)F: 8.03
- Cn1cc([C@@H]2C[C@H]2C(=O)Nc2cc(-c3ccc(O[C@H]4CCN(C(=O)CO)CC4(F)F)c(C#N)c3)ccn2)cn1: 8.14
- N#Cc1cc(-c2ccnc(NC(=O)[C@@H]3C[C@H]3C(=O)NCCO)c2)ccc1OC1CCOCC1 (relative stereo): 6.52
- N#Cc1cc(-c2ccnc(NC(=O)[C@@H]3C[C@H]3c3ccccc3)c2)ccc1OC1CCOCC1: 6.37

Okay, now this molecule:
Recorded pIC50 (molecule COCC(=O)N1CC[C@H](Oc2ccc(-c3ccnc(NC(=O)[C@H]4C[C@@H]4F)c3)cc2C#N)[C@H](F)C1 ): 7.47

====

# TARGET_SYSTEM: IKKε (Homo sapiens)
# Construct: TBK1 and IKKε were expressed and purified as full length recombinant proteins
# Sequence (Q14164 whole entry): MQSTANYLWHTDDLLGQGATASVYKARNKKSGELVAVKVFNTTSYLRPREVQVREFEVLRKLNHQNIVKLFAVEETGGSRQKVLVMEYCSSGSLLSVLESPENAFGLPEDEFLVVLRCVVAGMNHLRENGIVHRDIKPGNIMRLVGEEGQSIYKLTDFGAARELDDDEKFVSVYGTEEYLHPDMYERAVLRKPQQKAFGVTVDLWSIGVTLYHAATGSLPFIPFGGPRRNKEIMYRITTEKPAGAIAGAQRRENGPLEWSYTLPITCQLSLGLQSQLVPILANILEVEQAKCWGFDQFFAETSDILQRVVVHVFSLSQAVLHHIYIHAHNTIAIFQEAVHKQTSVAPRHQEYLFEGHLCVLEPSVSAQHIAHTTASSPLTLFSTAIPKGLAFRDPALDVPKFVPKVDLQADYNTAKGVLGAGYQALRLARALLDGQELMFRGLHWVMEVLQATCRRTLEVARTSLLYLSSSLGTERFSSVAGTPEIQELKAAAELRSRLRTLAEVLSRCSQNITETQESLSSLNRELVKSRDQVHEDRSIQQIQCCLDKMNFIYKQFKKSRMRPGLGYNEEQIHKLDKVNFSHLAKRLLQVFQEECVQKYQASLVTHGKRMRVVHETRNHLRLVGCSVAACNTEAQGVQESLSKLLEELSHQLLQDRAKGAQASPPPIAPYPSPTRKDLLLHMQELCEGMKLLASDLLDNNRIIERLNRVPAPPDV
# EXPERIMENT_SUMMARY: TR-FRET enzymatic activity assay, IKKε; further: full length recombinant IKKε at 0.3 nM
# RUN_PARAMETERS: read-out: IKKϵ IC50
MEASURED_METRIC: IC50

Recorded results for 3 compounds are shown here.
* CCC[C@H]1C[C@@H]1C(=O)Nc1cc(-c2ccc(OC3CCOCC3)c(C#N)c2)ccn1 (relative stereo) | 0.266 µM
* N#Cc1cc(-c2ccnc(NC(=O)[C@H]3C[C@@H]3c3cscn3)c2)ccc1OC1CCOCC1 (relative stereo) | > 1 µM
* N#Cc1cc(-c2ccnc(NC(=O)[C@H]3C[C@@H]3c3cccc(F)c3)c2)ccc1OC1CCOCC1 (relative stereo) | > 1 µM

Just so you know, measured IC50 for CO[C@H]1CCN(c2ccc(-c3ccnc(NC(=O)C4CC4)c3)cc2C#N)C1 came out at 0.195 µM

Sure, the documented IC50 for Cn1cc(C2C[C@H]2C(=O)Nc2cc(-c3ccc(O[C@H]4CCN(C(=O)CO)CC4(F)F)c(C#N)c3)ccn2)cn1 (stereo in doubt) is 0.0024 µM

Quick note, IC50 for N#Cc1cc(-c2ccnc(NC(=O)C3CC3)c2)ccc1CC1CCOCC1 landed at > 1 µM
